Attribution: ChEMBL document CHEMBL1136611

- experimental.target: Lysosomal acid glucosylceramidase (Homo sapiens) (UniProt P04062)
- Sequence (P04062 whole entry): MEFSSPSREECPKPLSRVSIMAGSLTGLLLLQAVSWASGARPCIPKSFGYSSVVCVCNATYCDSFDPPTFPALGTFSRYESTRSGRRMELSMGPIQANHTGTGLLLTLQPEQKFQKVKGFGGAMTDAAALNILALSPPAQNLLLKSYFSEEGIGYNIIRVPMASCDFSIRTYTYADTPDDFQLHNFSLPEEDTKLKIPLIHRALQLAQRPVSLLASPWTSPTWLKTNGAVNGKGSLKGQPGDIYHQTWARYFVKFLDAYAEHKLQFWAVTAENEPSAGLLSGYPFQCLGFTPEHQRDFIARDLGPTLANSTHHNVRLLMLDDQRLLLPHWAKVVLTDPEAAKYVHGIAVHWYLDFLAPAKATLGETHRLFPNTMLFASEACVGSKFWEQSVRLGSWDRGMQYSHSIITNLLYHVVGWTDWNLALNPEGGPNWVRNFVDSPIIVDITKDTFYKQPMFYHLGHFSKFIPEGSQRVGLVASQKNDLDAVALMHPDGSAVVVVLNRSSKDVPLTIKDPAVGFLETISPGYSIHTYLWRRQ
- procedure.summary: In vitro beta--Glucocerebrosidase (beta-GlcCer'ase) activity in cultured human keratinocytes
- Assay type: cell-based
- Set-up: reference not given here
Parameter threshold = 1. Response is YES when Activity meets or exceeds it, else NO.

molecule: CCCCCCCCCCCCCCCC(=O)N[C@@H](CO[C@@H]1O[C@@H](CO)C(O)[C@H](O)[C@@H]1O)C(=O)NCCCCCCCCCCCCCC (single isomer, unassigned)
group: YES

molecule: CCCCCCCCCCCCCCCCCC(=O)N[C@@H](CO[C@@H]1O[C@@H](CO)C(O)[C@H](O)[C@@H]1O)C(=O)NCCCCCCCCCCCCCC (single isomer, unassigned)
group: YES

molecule: CCCCCCCCCCCCCCCCCC(=O)N[C@@H](CO[C@@H]1O[C@@H](CO)C(O)[C@H](O)[C@@H]1O)C(=O)NCCCCCCCCCC (single isomer, unassigned)
group: YES

molecule: CCCCCCCCCCCCCCCCCC(=O)N[C@@H](CO[C@@H]1O[C@@H](CO)C(O)[C@H](O)[C@@H]1O)C(=O)NCCCCCC (single isomer, unassigned)
group: YES

Please look at the following molecule next.
Please check the record CCCCCCCCCCCCCCNC(=O)[C@H](CO[C@@H]1O[C@@H](CO)C(O)[C@H](O)[C@@H]1O)NC(=O)CCCCCCC (single isomer, unassigned) and state if its Activity is at or above 1.
NO
